Taken from patent US20260217813A1.

# target-or-test-system: T1, IL-12 (Human IL12 (His Tag)), Sino Biological Cat. No. CT-050-H08H-20 (human, UniProt P29460 23-328; P29459 23-219)
# T1 construct: Bought His-tagged p35/p40 heterodimer
# T1 sequence (looked up) 1: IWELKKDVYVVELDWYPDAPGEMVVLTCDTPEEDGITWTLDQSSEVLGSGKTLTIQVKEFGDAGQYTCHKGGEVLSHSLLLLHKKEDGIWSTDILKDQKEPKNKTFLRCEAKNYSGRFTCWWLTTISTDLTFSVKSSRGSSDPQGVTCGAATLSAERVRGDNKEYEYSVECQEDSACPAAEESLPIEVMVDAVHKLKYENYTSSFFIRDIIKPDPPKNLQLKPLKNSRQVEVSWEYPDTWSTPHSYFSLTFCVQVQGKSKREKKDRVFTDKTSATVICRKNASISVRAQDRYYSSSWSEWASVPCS
# T1 sequence (looked up) 2: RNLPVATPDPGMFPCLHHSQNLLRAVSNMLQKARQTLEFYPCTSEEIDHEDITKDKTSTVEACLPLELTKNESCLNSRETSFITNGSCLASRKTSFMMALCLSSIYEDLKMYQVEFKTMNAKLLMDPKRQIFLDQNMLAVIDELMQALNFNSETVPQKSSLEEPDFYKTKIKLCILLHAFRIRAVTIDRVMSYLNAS
# experiment: FACS competition, IL-12-His 20 nM on 293T-IL-12RB1&IL-23R cells, antibody 3.33 µg/mL
measured-parameter: MFI
Lab note: record just the number, no unit beside it.

Below, 2 binders whose answers are already recorded.
input: If you can, please state the reported MFI value of H5L9 (antibody, human IgG1, kappa, V domains shown, Humanized anti-human IL-12/IL-23 p40 antibody; IgG1 (P01857) / kappa (P01834) constant regions) VH: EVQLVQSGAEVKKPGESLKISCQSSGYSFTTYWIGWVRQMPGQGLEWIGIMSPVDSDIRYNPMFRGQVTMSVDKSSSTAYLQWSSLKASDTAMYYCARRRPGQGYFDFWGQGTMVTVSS VL: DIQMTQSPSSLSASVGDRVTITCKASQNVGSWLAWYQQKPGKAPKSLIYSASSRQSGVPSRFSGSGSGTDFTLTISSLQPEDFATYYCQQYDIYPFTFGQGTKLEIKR .
output: 146

input: If you can, please state the reported MFI value of H5L14 (antibody, human IgG1, kappa, V domains shown, IgG1/kappa) VH: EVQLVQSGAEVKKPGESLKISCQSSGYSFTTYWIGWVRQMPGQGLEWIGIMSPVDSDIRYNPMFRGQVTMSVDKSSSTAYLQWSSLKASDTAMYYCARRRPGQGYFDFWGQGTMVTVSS VL: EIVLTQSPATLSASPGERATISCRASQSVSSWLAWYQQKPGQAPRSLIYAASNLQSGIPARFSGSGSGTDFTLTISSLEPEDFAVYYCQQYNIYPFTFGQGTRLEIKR .
output: 51.9

Now turn to the next binder.
input: If you can, please state the reported MFI value of H5L10 (antibody, human IgG1, kappa, V domains shown, IgG1/kappa) VH: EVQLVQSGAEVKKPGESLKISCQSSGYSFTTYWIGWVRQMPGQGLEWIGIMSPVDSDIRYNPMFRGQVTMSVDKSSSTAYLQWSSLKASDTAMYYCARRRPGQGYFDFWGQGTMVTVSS VL: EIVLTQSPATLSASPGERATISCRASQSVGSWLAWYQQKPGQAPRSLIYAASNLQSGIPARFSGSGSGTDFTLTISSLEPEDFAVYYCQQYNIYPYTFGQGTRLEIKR .
output: 40.2
